- target or test system: Neuronal acetylcholine receptor; alpha4/beta2 (Homo sapiens, UniProt P17787+P43681)
- Sequence (P17787 whole entry): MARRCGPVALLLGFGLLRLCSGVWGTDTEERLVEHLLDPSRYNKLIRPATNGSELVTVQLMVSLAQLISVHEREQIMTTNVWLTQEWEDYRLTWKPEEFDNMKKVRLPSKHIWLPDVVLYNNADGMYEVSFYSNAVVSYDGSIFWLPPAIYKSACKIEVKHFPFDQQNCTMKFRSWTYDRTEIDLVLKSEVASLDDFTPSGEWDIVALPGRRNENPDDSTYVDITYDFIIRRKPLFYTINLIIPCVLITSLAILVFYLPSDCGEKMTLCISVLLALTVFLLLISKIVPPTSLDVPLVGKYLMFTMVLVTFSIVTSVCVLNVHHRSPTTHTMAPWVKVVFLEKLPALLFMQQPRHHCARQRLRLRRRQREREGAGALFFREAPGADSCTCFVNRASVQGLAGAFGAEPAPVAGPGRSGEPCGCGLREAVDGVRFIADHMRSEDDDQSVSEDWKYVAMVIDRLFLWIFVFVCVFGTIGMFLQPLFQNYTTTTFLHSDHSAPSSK
- Sequence (P43681 whole entry): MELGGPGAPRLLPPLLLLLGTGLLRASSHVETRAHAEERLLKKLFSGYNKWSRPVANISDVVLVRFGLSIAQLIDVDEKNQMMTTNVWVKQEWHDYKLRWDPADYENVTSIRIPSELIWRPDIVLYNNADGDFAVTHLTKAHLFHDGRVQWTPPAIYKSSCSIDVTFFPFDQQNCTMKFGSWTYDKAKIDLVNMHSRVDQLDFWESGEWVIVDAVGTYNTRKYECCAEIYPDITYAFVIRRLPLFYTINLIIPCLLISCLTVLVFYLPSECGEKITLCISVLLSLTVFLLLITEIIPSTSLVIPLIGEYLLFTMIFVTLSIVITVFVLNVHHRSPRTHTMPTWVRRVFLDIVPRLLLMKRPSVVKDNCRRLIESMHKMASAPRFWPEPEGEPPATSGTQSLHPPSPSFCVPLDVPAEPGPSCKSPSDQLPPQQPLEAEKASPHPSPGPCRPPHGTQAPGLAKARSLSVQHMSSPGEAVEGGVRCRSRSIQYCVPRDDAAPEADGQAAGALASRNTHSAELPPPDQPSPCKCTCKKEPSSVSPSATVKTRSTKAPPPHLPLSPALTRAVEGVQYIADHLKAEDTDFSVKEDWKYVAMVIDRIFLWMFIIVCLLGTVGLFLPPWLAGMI
- test protocol: Agonist activity at human alpha4beta2 nAChR expressed in human SH-EP1 cells after 9.5 mins by 86Rb+ efflux assay
- Assay type: cell-based
test readout: EC50 (nM)
Numbers only here, please. The scale is nM.

The examples below pair each entry with its known result.
COCC[C@H]1C[C@@H]1c1cncc(N2CCCNCC2)c1: 15.9
COCC[C@@H]1C[C@H]1c1cncc(N2CCCNCC2)c1: 17.1

Now turn to the next compound.
[Q] EC50 of OCCc1cc(-c2cncc(N3CCCNCC3)c2)on1 on Neuronal acetylcholine receptor; alpha4/beta2 (Homo sapiens, UniProt P17787+P43681)?
[A] 30.9

====

// pKi lookup, one value per entry
- target or test system: Neuronal acetylcholine receptor; alpha3/beta4 (Rattus norvegicus, UniProt P04757+P12392)
- Sequence (P04757 whole entry): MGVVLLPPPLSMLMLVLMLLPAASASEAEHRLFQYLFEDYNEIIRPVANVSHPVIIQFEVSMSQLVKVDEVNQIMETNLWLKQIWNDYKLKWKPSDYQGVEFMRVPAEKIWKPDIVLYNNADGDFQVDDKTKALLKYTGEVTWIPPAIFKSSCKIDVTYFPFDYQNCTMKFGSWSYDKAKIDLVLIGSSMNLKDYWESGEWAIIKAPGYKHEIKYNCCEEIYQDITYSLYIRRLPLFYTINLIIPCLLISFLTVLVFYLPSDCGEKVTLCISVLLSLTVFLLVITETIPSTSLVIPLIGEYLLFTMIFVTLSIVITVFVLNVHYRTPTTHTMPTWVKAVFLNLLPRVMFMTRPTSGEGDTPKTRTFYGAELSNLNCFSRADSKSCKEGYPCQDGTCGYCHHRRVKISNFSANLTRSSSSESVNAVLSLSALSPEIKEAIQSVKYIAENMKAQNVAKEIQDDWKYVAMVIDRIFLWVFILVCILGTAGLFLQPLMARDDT
- Sequence (P12392 whole entry): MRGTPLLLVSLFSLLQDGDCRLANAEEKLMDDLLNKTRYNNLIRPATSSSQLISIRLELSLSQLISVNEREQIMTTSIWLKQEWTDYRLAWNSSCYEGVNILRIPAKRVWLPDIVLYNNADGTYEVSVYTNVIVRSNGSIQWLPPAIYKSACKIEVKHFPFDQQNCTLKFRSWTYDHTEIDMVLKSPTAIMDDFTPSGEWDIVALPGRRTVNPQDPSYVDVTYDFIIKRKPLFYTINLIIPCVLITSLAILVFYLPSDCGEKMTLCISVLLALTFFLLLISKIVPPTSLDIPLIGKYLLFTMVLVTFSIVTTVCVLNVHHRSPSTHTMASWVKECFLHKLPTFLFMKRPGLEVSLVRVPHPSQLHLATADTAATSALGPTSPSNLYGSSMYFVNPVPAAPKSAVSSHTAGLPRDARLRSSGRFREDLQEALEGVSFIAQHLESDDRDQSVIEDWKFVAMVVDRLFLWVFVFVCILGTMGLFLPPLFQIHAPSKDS
- test protocol: Displacement of [3H]epibatidine from rat alpha3beta4 nAChR by liquid scintillation counting
- Type: protein-complex assay
Scale note: pKi = -log10(concentration in M).

Would you please look over these solved cases?
c1cncc(N2CCCNCC2)c1: 6.44
c1cncc(N2CC3CC2CN3)c1 (stereo not given): 7.19

Let's switch to this molecule now.
[Q] So what does the record say about pKi for OCCc1cc(-c2cncc(N3CCCNCC3)c2)on1 ?
[A] 5.09

====

Quick reference for IC50 among some molecules
- target or test system: Neuronal acetylcholine receptor; alpha4/beta2 (Homo sapiens, UniProt P17787+P43681)
- test protocol: Antagonist activity at human alpha4beta2 expressed in human SH-EP1 cells assessed as reduction in carbamylcholine induced 86Rb+ efflux preincubated for 10 mins followed by carbamylcholine addition measured after 5 mins by Cherenkov counting

Worked set:
COCC[C@H]1C[C@@H]1c1cncc(N2CCCNCC2)c1: 16 nM
COCC[C@H]1C[C@@H]1c1cncc(N2CCCN(C)CC2)c1: > 1000 nM
OCCc1cc(-c2cncc(N3CCCNCC3)c2)on1: 50.8 nM

Continue with the next molecule.
[Q] Given COCC[C@@H]1C[C@H]1c1cncc(N2CCCNCC2)c1 , state its recorded IC50.
[A] 15.7 nM

====

- test protocol: Displacement of [3H]epibatidine from rat forebrain alpha4beta2* nAChR by liquid scintillation counting
test readout: pKi
Note on pKi: it is the negative log10 of concentration, concentration in mol/L.

[Q] Requested read-out: pKi. Entry: COCC[C@@H]1C[C@H]1c1cncc(N2CCCNCC2)c1
[A] 8.57

====

- target or test system: Neuronal acetylcholine receptor; alpha2/beta4 (Rattus norvegicus, UniProt P12389+P12392)
- Sequence (P12389 whole entry, one chain of several): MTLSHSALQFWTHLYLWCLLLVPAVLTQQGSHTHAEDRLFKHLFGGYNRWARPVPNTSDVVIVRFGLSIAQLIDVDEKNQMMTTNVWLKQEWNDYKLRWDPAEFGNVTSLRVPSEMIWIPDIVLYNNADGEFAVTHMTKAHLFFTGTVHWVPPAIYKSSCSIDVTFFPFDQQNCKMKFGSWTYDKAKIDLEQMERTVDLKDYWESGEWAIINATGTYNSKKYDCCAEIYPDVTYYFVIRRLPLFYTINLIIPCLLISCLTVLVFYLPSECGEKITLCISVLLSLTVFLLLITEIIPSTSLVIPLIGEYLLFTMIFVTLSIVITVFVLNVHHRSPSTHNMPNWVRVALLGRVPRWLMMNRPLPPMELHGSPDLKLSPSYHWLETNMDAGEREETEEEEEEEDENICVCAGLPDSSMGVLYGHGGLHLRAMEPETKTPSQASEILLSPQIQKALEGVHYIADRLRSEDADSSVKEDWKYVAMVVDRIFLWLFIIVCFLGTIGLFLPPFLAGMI
- test protocol: Displacement of [3H]epibatidine from rat alpha2beta4 nAChR by liquid scintillation counting
- Format: protein-complex assay
test readout: Ki (nM)
Expressed in nM, but write only the number.

COCC[C@H]1C[C@@H]1c1cncc(N2C[C@@H]3C[C@H]2CN3)c1: 4810
c1cncc(N2CCCNCC2)c1: 62
COCC[C@@H]1C[C@H]1c1cncc(N2CCCNCC2)c1: 256

[Q] # query: Ki | item OCCc1cc(-c2cncc(N3CCCNCC3)c2)on1 | system: Neuronal acetylcholine receptor; alpha2/beta4 (Rattus norvegicus, UniProt P12389+P12392)
[A] 331

[Q] Ki of c1cncc(N2CC3CC2CN3)c1 (configuration not stated) on Neuronal acetylcholine receptor; alpha2/beta4 (Rattus norvegicus, UniProt P12389+P12392)?
[A] 15.2

[Q] Kindly state the measured Ki obtained for COCC[C@H]1C[C@@H]1c1cncc(N2CCCNCC2)c1 with Neuronal acetylcholine receptor; alpha2/beta4 (Rattus norvegicus, UniProt P12389+P12392).
[A] 460
